target: CDK9/Cyclin K (Homo sapiens)
Sequence (P50750 whole entry): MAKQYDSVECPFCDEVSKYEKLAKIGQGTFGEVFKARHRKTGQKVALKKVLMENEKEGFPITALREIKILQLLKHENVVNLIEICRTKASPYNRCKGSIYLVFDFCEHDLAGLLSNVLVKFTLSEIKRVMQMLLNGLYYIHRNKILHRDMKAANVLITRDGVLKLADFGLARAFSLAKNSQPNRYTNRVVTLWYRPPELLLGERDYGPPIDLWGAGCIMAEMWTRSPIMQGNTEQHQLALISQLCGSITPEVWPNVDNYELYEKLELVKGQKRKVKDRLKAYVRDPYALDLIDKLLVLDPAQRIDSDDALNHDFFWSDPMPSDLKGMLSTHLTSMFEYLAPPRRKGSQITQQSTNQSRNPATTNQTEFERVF
Sequence (O75909 whole entry partner): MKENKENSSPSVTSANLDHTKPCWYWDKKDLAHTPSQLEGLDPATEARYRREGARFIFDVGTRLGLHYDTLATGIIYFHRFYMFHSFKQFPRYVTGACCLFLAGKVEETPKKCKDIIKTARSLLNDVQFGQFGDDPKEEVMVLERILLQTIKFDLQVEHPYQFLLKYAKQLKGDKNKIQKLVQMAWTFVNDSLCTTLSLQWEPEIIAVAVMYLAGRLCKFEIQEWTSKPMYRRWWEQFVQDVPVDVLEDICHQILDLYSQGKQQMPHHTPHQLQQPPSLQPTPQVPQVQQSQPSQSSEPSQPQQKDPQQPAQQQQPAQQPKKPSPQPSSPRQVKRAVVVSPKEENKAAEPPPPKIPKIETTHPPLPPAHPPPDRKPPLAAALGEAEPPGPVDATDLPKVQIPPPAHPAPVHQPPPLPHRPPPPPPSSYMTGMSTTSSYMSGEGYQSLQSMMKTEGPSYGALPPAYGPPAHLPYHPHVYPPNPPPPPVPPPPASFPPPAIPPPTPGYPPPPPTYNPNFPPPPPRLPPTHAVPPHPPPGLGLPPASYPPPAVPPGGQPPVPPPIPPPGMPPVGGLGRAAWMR
assay comment: Inhibition of CDK9/Cyclin K kinase activity (ADP-Glo)
Format: biochemical
conditions used: mean value from several measurements; read-out: IC50 CDK9/Cyclin K
pIC50: −log10 of the molar value.
Overview of recorded pIC50 for various compounds

Sample answers from the record:
Cc1nnc2n1CCCc1c(-c3nc(N[C@H]4CCCNC4)ncc3C(F)(F)F)c[nH]c1-2 [CDK7_1236]; 6.70 to 7.30
O=C(NCC(F)(F)F)c1cc(-c2nc(N[C@H]3CCCNC3)ncc2C(F)(F)F)c[nH]1 [CDK7_847]; 7.30 to 8.30
FC(F)(F)c1cnc(N[C@H]2CCCNC2)nc1-c1c[nH]c(-c2nnnn2C2CC2)c1 [CDK7_1102]; 7.30 to 8.30
CN1CCCc2c(-c3nc(N[C@H]4CCCNC4)ncc3C(F)(F)F)c[nH]c2C1=O [CDK7_953]; 6.70 to 7.30
FC(F)(F)c1cnc(N[C@H]2CCCNC2)nc1-c1c[nH]c(-c2ncccn2)c1 [CDK7_1062]; 7.30 to 8.30
CN(C)C(=O)c1cc(-c2nc(N[C@H]3CCCNC3)ncc2C(F)(F)F)cn1C [CDK7_1017]; 6.70 to 7.30

Qu. Name the reported pIC50 value associated with the compound Cn1cc(-n2ccc3c(-c4nc(N[C@H]5CCC(C)(C)NC5)ncc4C(F)(F)F)c[nH]c3c2=O)cn1 [CDK7_1123]
Ans. < 6.70

Qu. Name the reported pIC50 value associated with the compound CC(C)N1CCCc2c(-c3nc(N[C@H]4CCC5(CC5)NC4)ncc3C(F)(F)F)c[nH]c2C1=O [CDK7_1277]
Ans. < 6.70

----------
assay comment: Blood-brain barrier permeability: PK in mice brain homogenate following oral administration
Format: in vivo, CD-1 mice
conditions used: male, CD-1, mouse, mice brain homogenate, dose 10 mg/kg
quantity kind: AUC(0-t) (ng·h/mL)

CC(C)N1CCCc2c(-c3nc(N[C@H]4CCC(C)(C)NC4)ncc3C(F)(F)F)c[nH]c2C1=O; 909
O=C1c2[nH]cc(-c3nc(N[C@H]4CCC5(CC5)NC4)ncc3C(F)(F)F)c2CCCN1C1CC1; 1940
CC1(C)CC[C@H](Nc2ncc(C(F)(F)F)c(-c3c[nH]c4c3CCCN(C3CC3)C4=O)n2)CN1; 855
CC(C)N1CCCc2c(-c3nc(N[C@H]4CCC5(CC5)NC4)ncc3C(F)(F)F)c[nH]c2C1=O; 1750

----------
assay comment: Pharmacokinetics in mice plasma following oral administration
Type: in vivo, CD-1 mice
conditions used: male, CD-1, mouse, mice plasma, dose 10 mg/kg
quantity kind: AUC(0-t) (ng·h/mL)

O=C1c2[nH]cc(-c3nc(N[C@H]4CCC5(CC5)NC4)ncc3C(F)(F)F)c2CCCN1C1CC1; 7980
CC(C)N1CCCc2c(-c3nc(N[C@H]4CCC5(CC5)NC4)ncc3C(F)(F)F)c[nH]c2C1=O; 3110

(1) CC1(C)CC[C@H](Nc2ncc(C(F)(F)F)c(-c3c[nH]c4c3CCCN(C3CC3)C4=O)n2)CN1
(2) CC(C)N1CCCc2c(-c3nc(N[C@H]4CCC(C)(C)NC4)ncc3C(F)(F)F)c[nH]c2C1=O
(3) CN1CCCc2c(-c3nc(N[C@H]4CCC(C)(C)NC4)ncc3C(F)(F)F)c[nH]c2C1=O
Qu. Order the items by recorded AUC(0-t); the first position goes to the largest value. Present the labels in the sequence the task asks for.
Ans. 2, 1, 3
(2: 5790 ng·h/mL, 1: 3540 ng·h/mL, 3: 1160 ng·h/mL)

----------
Overview of recorded CC50 at 72 h for various compounds
assay comment: General cytotoxicity on primary differentiated HepaRG cells (72 h)
Assay type: cell-based
conditions used: human, general toxicity, mean value from several measurements

Sample answers from the record:
CN(Cc1ccccc1)C(=O)c1cc(-c2nc(N[C@H]3CCCNC3)ncc2C(F)(F)F)c[nH]1; > 2000 nM
O=C1c2[nH]cc(-c3nc(NC4CCCNC4)ncc3C(F)(F)F)c2CCCN1C1CC1 (stereo not shown); > 2000 nM
O=C1c2[nH]cc(-c3nc(N[C@H]4CCC5(CC5)NC4)ncc3C(F)(F)F)c2CCCN1C1CC1; > 2000 nM

Qu. Name the reported CC50 at 72 h value associated with the compound FC(F)(F)c1cnc(N[C@H]2CCCNC2)nc1-c1c[nH]c(-c2noc(C3CC3)n2)c1
Ans. 100 to 500 nM

----------
assay comment: Pharmacokinetics in mice plasma following oral administration
Format: in vivo, CD-1 mice
conditions used: male, CD-1, mouse, mice plasma, dose 10 mg/kg
quantity kind: Cmax (ng/mL)

(1) CC1(C)CC[C@H](Nc2ncc(C(F)(F)F)c(-c3c[nH]c4c3CCCN(C3CC3)C4=O)n2)CN1
(2) CN1CCCc2c(-c3nc(N[C@H]4CCC(C)(C)NC4)ncc3C(F)(F)F)c[nH]c2C1=O
(3) CC(C)N1CCCc2c(-c3nc(N[C@H]4CCC(C)(C)NC4)ncc3C(F)(F)F)c[nH]c2C1=O
Qu. Sort the items above by Cmax, starting with the smallest value. Present the labels in the sequence the task asks for.
Ans. 2, 1, 3

----------
assay comment: Pharmacokinetics in mice plasma following intravenous administration
Type: in vivo, CD-1 mice
conditions used: male, CD-1, mouse, dose 1 mg/kg
quantity kind: clearance (mL/min/kg)
Respond with the bare value in mL/min/kg.

Qu. Name the reported clearance value associated with the compound CC(C)N1CCCc2c(-c3nc(N[C@H]4CCC5(CC5)NC4)ncc3C(F)(F)F)c[nH]c2C1=O
Ans. 45

----------
target: CDK7/Cyclin H/MNAT1 (Homo sapiens, UniProt P50613)
Sequence (P50613 whole entry): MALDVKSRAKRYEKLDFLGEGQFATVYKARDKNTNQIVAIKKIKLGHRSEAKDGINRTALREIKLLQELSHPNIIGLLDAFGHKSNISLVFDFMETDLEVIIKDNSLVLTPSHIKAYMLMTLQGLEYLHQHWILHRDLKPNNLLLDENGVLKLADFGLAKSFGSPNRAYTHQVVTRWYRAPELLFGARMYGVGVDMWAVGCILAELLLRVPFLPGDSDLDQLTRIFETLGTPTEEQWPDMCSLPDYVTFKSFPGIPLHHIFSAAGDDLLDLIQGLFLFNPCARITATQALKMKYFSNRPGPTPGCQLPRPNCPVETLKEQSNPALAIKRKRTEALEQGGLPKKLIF
Sequence (P51946 whole entry partner): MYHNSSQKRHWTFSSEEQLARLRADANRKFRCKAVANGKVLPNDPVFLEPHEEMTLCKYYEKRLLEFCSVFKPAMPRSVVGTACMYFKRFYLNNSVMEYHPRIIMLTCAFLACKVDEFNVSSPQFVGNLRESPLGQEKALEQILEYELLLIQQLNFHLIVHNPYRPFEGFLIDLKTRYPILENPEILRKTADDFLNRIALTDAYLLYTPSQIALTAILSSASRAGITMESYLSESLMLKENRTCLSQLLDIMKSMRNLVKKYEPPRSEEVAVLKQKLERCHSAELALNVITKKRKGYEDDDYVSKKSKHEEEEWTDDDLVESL
Sequence (P51948 whole entry partner): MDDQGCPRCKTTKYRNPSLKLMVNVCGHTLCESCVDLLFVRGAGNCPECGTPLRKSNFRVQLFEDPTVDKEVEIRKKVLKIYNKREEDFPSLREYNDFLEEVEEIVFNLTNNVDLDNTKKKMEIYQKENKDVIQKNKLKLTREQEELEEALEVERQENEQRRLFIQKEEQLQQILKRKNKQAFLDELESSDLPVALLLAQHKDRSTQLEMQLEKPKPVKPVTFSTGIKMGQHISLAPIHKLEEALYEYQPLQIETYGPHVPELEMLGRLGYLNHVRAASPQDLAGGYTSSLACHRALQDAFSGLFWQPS
assay comment: Inhibition of CDK7/Cyclin H/MNAT1 kinase activity (ADP-Glo)
Format: biochemical
conditions used: mean value from several measurements; read-out: IC50 CDK7/Cyclin H/MNAT
Procedure: Measurements were carried out in a 5 μl reaction volume using a 384-well plate (Corning Inc., order no. 4513). The analyzed substances were titrated from 50 μM in increments of 4 at 11 concentration points in a normal strength kinase buffer A (Thermo Fisher Scientific Inc, cat. no. PV3189) supplemented with DTT (Sigma, orde. no. 646563-10X.5ML) and prepared with water (Panreac, order no. 701074). […]
pIC50: −log10 of the molar value.
quantity kind: pIC50

Sample answers from the record:
CN1Cc2c(-c3nc(N[C@H]4CCCNC4)ncc3C(F)(F)F)c[nH]c2C1=O; > 8.30
CC1(C)CC[C@H](Nc2ncc(C(F)(F)F)c(-c3c[nH]c4c3CCCN(C3CC3)C4=O)n2)CN1; > 8.30

Qu. Name the reported pIC50 value associated with the compound Cc1nnc2n1CCCc1c(-c3nc(N[C@H]4CCCNC4)ncc3C(F)(F)F)c[nH]c1-2
Ans. > 8.30

Qu. Name the reported pIC50 value associated with the compound O=C(NC1CCC(O)CC1)c1cc(-c2nc(N[C@H]3CCCNC3)ncc2C(F)(F)F)c[nH]1 (stereo partly drawn)
Ans. 7.30 to 8.30

Qu. Name the reported pIC50 value associated with the compound FC(F)(F)c1cnc(N[C@H]2CCCNC2)nc1Oc1ccccc1
Ans. 7.30 to 8.30

Qu. Name the reported pIC50 value associated with the compound O=C(NCc1ccccc1)c1cc(-c2nc(N[C@H]3CCCNC3)ncc2C(F)(F)F)c[nH]1
Ans. 7.30 to 8.30

Qu. Name the reported pIC50 value associated with the compound FC(F)(F)c1cnc(N[C@H]2CCCNC2)nc1-c1cc[nH]c1
Ans. 7.30 to 8.30

Qu. Name the reported pIC50 value associated with the compound FC(F)(F)c1cnc(N[C@H]2CCCNC2)nc1-n1ccc2ccccc21
Ans. 7.30 to 8.30

Qu. Name the reported pIC50 value associated with the compound Cn1cc(-n2ccc3c(-c4nc(N[C@H]5CCC6(CC6)NC5)ncc4C(F)(F)F)c[nH]c3c2=O)cn1
Ans. > 8.30

Qu. Name the reported pIC50 value associated with the compound Cn1nnc(-c2cc(-c3nc(N[C@H]4CCCNC4)ncc3C(F)(F)F)c[nH]2)n1
Ans. > 8.30

Qu. Name the reported pIC50 value associated with the compound CN1CCN(C(=O)c2cc(-c3nc(N[C@H]4CCCNC4)ncc3C(F)(F)F)c[nH]2)CC1
Ans. 7.30 to 8.30

Qu. Name the reported pIC50 value associated with the compound Nc1ccccc1Oc1nc(N[C@H]2CCCNC2)ncc1C(F)(F)F
Ans. 7.30 to 8.30

Qu. Name the reported pIC50 value associated with the compound O=c1c2[nH]cc(-c3nc(N[C@H]4CCCNC4)ncc3C(F)(F)F)c2ccn1C1CC1
Ans. > 8.30

Qu. Name the reported pIC50 value associated with the compound O=C(Nc1ccccc1)c1cc(-c2nc(N[C@H]3CCCNC3)ncc2C(F)(F)F)c[nH]1
Ans. 7.30 to 8.30

Qu. Name the reported pIC50 value associated with the compound CC1(C)CC[C@H](Nc2ncc(C(F)(F)F)c(-c3c[nH]c4c3CCCN(CC3CC3)C4=O)n2)CN1
Ans. > 8.30

Qu. Name the reported pIC50 value associated with the compound O=C1NCCc2c(-c3nc(N[C@H]4CCCNC4)ncc3C(F)(F)F)c[nH]c21
Ans. > 8.30

Qu. Name the reported pIC50 value associated with the compound CC(C)N1CCCc2c(-c3nc(N[C@H]4CCC5(CC5)NC4)ncc3C(F)(F)F)c[nH]c2C1=O
Ans. > 8.30

Qu. Name the reported pIC50 value associated with the compound O=C(c1cc(-c2nc(N[C@H]3CCCNC3)ncc2C(F)(F)F)c[nH]1)N1CCOCC1
Ans. > 8.30

Qu. Name the reported pIC50 value associated with the compound O=C1c2[nH]cc(-c3nc(N[C@H]4CCCNC4)ncc3C(F)(F)F)c2CCCN1c1ccccn1
Ans. 7.30 to 8.30

Qu. Name the reported pIC50 value associated with the compound O=C1c2[nH]cc(-c3nc(NC4CCCNC4)ncc3C(F)(F)F)c2CCCN1C1CC1 (stereo not drawn)
Ans. > 8.30
